Entries annotated with measured growth AUC
Test system: Bacteroides thetaiotaomicron
Assay: growth AUC relative to DMSO control (median of replicates) (fraction); higher = more growth (less inhibition), active = hit call of the paper
Conditions: 20 µM; 24 h
Please respond with just the number, no unit label.

Solved cases below.
CCCCN(CC)c1c([N+](=O)[O-])cc(C(F)(F)F)cc1[N+](=O)[O-]	1.02
O=CNC(N1CCN(C(NC=O)C(Cl)(Cl)Cl)CC1)C(Cl)(Cl)Cl (stereo not given)	0.919

growth AUC recorded for this compound, CC(C)C(C(=O)OC(C#N)c1cccc(Oc2ccccc2)c1)c1ccc(Cl)cc1 (stereo not given) , is 1.02

Reported growth AUC for `CC1(C)[C@H](C(=O)O[C@H](C#N)c2cccc(Oc3ccccc3)c2)[C@@H]1C=C(Br)Br` was 1.02

Memo: CC(C)=CC1C(C(=O)OCN2C(=O)C3=C(CCCC3)C2=O)C1(C)C (stereo not given) , reported growth AUC: 0.965
